In this section, each of the sequences is paired with its reported phosphorylation enrichment.
# SYSTEM_TESTED: MERTK (UniProt Q12866)
# Sequence (Q12866 whole entry, looked up): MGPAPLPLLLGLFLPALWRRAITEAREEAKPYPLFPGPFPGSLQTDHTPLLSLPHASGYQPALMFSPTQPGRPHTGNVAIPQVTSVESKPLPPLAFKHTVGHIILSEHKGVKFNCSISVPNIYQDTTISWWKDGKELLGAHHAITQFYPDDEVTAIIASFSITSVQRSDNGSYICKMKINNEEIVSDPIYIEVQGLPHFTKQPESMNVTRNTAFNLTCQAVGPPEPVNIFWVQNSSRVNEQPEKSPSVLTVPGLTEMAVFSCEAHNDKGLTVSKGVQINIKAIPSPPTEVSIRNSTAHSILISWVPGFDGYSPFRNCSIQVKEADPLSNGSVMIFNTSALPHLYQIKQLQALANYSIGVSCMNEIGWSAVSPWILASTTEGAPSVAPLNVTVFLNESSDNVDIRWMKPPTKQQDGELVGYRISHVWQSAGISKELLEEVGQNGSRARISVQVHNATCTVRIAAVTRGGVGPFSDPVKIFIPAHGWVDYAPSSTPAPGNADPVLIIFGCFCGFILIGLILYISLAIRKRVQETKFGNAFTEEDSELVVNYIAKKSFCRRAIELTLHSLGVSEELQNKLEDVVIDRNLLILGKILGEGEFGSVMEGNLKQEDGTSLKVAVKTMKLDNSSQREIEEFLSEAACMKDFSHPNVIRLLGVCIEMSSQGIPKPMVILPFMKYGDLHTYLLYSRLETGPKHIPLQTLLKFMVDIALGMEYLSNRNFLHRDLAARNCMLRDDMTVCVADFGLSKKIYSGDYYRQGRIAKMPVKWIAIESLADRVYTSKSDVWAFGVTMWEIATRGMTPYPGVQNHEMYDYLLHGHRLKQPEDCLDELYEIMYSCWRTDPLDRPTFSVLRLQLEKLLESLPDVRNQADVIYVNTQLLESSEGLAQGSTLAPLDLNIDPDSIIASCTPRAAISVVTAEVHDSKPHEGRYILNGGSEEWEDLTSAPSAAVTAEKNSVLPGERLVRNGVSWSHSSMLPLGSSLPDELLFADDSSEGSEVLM
# PROTOCOL_SUMMARY: phosphorylation enrichment, bacterial display (enrichment ratio); higher = better substrate or ligand; peptides without Tyr show the background;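 further: 11-residue human phosphosite peptides and single-mutation variants displayed on the E. coli surface, counted by deep sequencing, each peptide's frequency after selection divided by its frequency in the unselected input library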;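 further: frequency after pTyr selection over input frequency; kinase dosed for 20-30% of maximal phosphorylation in three min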
Enter a number only.

Use these answered entries as a reference point.
PLDGEYFTHQI [TP53_Y327_L330H] :: 0.656
PTTKTYFPHFG [HBA1_Y43_D48G] :: 0.397
VSLEAYCKHKF [RXRA_Y403_A398V_YF] :: 0.443
EHLNRYISDTF [TTLL10_Y446] :: 0.393
KVMANYMFKAG [MAML2_Y513_YF] :: 0.432

Query :: Output phosphorylation enrichment of RNYDTYTAGLS [RHBDD1_Y264]
Result :: 0.841

Query :: Output phosphorylation enrichment of AHPIIYEIIEA [PYKtide_E_2014]
Result :: 11.6

Query :: Output phosphorylation enrichment of SIFKDYFRFNF [PLA2G2D_Y85_YF]
Result :: 0.579

Values from the supplement of paper PMC10065799
